# Tested on: Candida albicans
# assay.comment: Anti-virulence activity against Candida albicans SC5314 assessed as inhibition of fungal filamentation by measuring reduction in hyphae formation in GlcNAc medium upto 10 uM incubated for 3 to 5 days by stereomicroscopic analysis
# Type: functional, organism-based
# stated.conditions: time 3-5 day
Active and inactive are the calls of the source. The rule behind the calls is not given here.
assay.metric: Activity

# example entries with known answers
[[record]]
smiles_code = "Nc1nnnn1CCC12CC3CC(CC(C3)C1)C2"
target_or_system = "Candida albicans"
result = "Active"

[[record]]
smiles_code = "Nc1nnn(CCC23CC4CC(CC(C4)C2)C3)n1"
target_or_system = "Candida albicans"
result = "Active"

[[record]]
smiles_code = "c1ccc(Cn2nnnc2Nc2ccccc2)cc1"
target_or_system = "Candida albicans"
result = "Active"

[[record]]
smiles_code = "CCCn1nnnc1Nc1ccnc(Cl)n1"
target_or_system = "Candida albicans"
result = "Active"


Now examine the next entry.
Prompt: Item c1ccc(Nc2nnnn2CCC23CC4CC(CC(C4)C2)C3)cc1 with Candida albicans - Activity?
Response: Active
